Target: P. falciparum apicoplast DNA polymerase (Pf-apPOL) (Plasmodium falciparum)
Sequence (Q8ILY1 entry or part of it): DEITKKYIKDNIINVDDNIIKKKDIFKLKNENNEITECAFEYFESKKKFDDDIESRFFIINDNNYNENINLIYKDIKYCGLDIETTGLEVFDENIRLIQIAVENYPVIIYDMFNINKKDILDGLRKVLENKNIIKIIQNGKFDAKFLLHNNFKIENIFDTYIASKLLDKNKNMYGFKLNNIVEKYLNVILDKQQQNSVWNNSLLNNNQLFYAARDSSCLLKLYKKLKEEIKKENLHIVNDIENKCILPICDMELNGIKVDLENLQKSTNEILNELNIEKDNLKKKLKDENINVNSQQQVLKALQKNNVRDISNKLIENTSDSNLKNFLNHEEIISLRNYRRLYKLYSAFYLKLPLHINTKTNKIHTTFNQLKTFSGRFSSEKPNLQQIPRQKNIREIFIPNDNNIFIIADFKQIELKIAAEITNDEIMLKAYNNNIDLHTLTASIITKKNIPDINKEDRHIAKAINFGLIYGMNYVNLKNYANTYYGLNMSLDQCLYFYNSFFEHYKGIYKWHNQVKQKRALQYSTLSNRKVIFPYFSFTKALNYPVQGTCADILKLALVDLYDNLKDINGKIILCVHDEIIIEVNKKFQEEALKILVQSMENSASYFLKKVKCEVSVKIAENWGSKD
Assay: Fluorescence-based high-throughput DNA polymerase assay (molecular beacon), primary screen and dose-response;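 also: test concentration in µM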
Format: biochemical
Settings: DRC-2; 180'; conc 5
# if value of % inhibition apPOL 180' reaches 10%, tag Fulfilled; if it stays below, tag Not fulfilled

Would you please look over these solved cases?
COc1ccccc1C1CC(=O)Oc2cc3c(cc21)OCO3 (stereo not drawn): Fulfilled
CC(C)CCNC(=O)c1cnn2c(O)cc(CSc3ccc(Cl)cc3)nc12: Fulfilled
C=CCOc1c(Br)cc(Br)cc1/C=C1\SC(=N)NC1=O: Not fulfilled
O=C(O)c1ccc(COc2cc([N+](=O)[O-])cc3cccnc23)cc1: Not fulfilled
Cc1cccc(NC(=O)Cn2ccc3c(=O)[nH]ccc32)c1C [Molecule 11, O=C(Cn1ccc2c1cc[nH]c2=O)Nc1cccc(c1C)C]: Fulfilled
Cc1cccc(C2=N/C(=C\c3ccc([N+](=O)[O-])o3)C(=O)O2)c1: Not fulfilled

API: above_or_equal(metric=% inhibition apPOL 180', cutoff=10%) for item O=C1Nc2ccc(I)cc2C1=Cc1cc(Br)c(O)c(Br)c1 Not fulfilled

Hello, I need to know if Cc1ccc(CNC(=O)c2cnn3c(O)cc(CSc4ccc(Cl)cc4)nc23)cc1 has measured % inhibition apPOL 180' not below 10%. Thanks! Fulfilled

Item N#CC(C#N)=C1SCN(c2cccc(Cl)c2)CS1 with % inhibition apPOL 180' of 10% or above? Fulfilled

hey, is % inhibition apPOL 180' for this one >= 10%? Cc1ccccc1NC(=O)Cn1ccc2c(=O)[nH]ccc21 [Molecule 50, O=C(Cn1ccc2c1cc[nH]c2=O)Nc1ccc(cc1)C] Not fulfilled

Given COC(=O)c1sc(-c2ccc(C(C)(C)C)cc2)cc1NC(=O)CCC(=O)O , state whether its % inhibition apPOL 180' is at least 10%. Not fulfilled

Identify whether the reported % inhibition apPOL 180' of the following compound is 10% or greater: O=c1nc(/C=C/c2ccc(Br)cc2)oc2ccccc12 Not fulfilled

% inhibition apPOL 180' >= 10% for C=CC1=C(C)c2cc3[nH]c(cc4nc(cc5[nH]c(cc1n2)c(C)c5CCC(=O)O)C(CCC(=O)O)=C4C)c(C)c3C=C ? Fulfilled

Is % inhibition apPOL 180' for Cc1cc(C)c2c(c1)C1C=CCC1C(c1ccc(C(=O)O)cc1)N2 (stereo not drawn) at or above 10%? Fulfilled

hey, is % inhibition apPOL 180' for this one >= 10%? CCOc1nc2cccc(C(=O)OC(C)OC(=O)OC3CCCCC3)c2n1Cc1ccc(-c2ccccc2-c2nnn[nH]2)cc1 (stereo not drawn) Fulfilled

Form field: % inhibition apPOL 180' at least 10%? Entry: Cc1ccc(N2NC(=O)/C(=C\c3ccc(O)c([N+](=O)[O-])c3)C2=O)cc1Cl Not fulfilled

Identify whether the reported % inhibition apPOL 180' of the following compound is 10% or greater: O=C1NN(c2ccc(Cl)c(Cl)c2)C(=O)/C1=C/c1ccc(-c2ccc3c(c2)C(=O)OC3)o1 Not fulfilled

Entry Cc1ccc(NC(=O)Cn2ccc3c(=O)[nH]ccc32)c(C)c1 : is its % inhibition apPOL 180' no less than 10%? Not fulfilled
